Assay: chemical genetic growth profiling, strain panel (AID 1159580);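 further: tested at 20 µM; growth read once vehicle control cultures reached saturation at 30 °C; 1 = growth at the plate median or of vehicle wells; lower values mean less growth of the strain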
Conditions: S. cerevisiae deletion strains, growth OD, locus YGR078C, strain PAC10, active compounds read low
Out of some 5,500 compounds screened, about 2,000 (36%) were called active. Inconclusive results (about 18%) are left out. The list shows a part of the results.
test-readout: normalized growth
One number for each entry.

- compound: "Clc1cccc(NC2=NCCS2)c1Cl"
  normalized growth: 1
- compound: "COC(=O)c1sccc1NC(=O)C1CC1"
  normalized growth: 0.978

I'm hoping you can list normalized growth for every compound here, please.
1. OC(Cn1cncn1)(Cn1cncn1)c1ccc(F)cc1F
2. Cn1c(=O)c2[nH]cnc2n(C)c1=O
3. C=C1CCC(OC(C)=O)/C(C)=C/C[C@@H]2[C@@H]1CC2(C)C (some centres undefined)
4. COc1ccc2c(c1)CCC(c1ccccc1)=C2c1ccc(OCCN2CCCC2)cc1
5. CC(=O)CC(=O)Nc1ccccc1Cl
6. Cc1ccc(-n2cccc2)c(NC(=S)Nc2ccc(Br)cc2OC(F)(F)F)c1

Marked response:
1: 1.02; 2: 0.992; 3: 1.03; 4: 0.852; 5: 0.993; 6: 0.973

Exam item: Tell me normalized growth reported for "CCN(CC)CCNC(=O)c1c(-c2c(Cl)cccc2Cl)noc1C"
Marked response: 1.01

* * *

Assay: chemical genetic growth profiling, strain panel (AID 1159580);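 further: tested at 20 µM; growth read once vehicle control cultures reached saturation at 30 °C; 1 = growth at the plate median or of vehicle wells; lower values mean less growth of the strain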
Details: S. cerevisiae deletion strains, growth OD, locus YLR342W, strain FKS1 (second series), active compounds read low
About 2,000 (36%) of roughly 5,500 compounds were called active. Inconclusive results (about 18%) are left out. This is one part of the list.
test-readout: normalized growth
Answers are plain numbers.

- compound: "O=c1cc[nH]c(=S)[nH]1"
  normalized growth: 1

I'm hoping you can list normalized growth for every compound here, please.
1. C=C1C(=O)OC2CC1C(OC(C)=O)C/C(C)=C/CC/C(C)=C/CC[C@]2(C)O (some centres undefined)
2. CCCNC1CCc2nc(N)sc2C1 (centres undefined)

Marked response:
1: 0.993; 2: 1.02

Exam item: Tell me normalized growth reported for "O=C(O)CN1C(=O)c2cccc3cccc(c23)C1=O"
Marked response: 1.02
